- assayTarget: MAGL (Homo sapiens, UniProt Q99685)
- Sequence (Q99685 1-303): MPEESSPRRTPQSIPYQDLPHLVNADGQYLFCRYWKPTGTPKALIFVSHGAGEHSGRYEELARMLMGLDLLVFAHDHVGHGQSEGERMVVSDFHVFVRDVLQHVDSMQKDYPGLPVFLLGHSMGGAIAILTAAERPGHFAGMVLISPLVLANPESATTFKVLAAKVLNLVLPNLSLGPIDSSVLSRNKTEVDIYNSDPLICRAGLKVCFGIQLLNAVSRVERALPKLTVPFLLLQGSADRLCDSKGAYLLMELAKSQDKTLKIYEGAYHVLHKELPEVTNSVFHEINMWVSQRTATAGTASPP
observable: IC50

Look over these answered cases.
CS(=O)(=O)Nc1ccn(C(=O)N2CCN(Cc3cc(N4CCC4)cc(C(F)(F)F)c3)CC2)n1 ≤ 100 nM
CS(=O)(=O)Nc1ccn(C(=O)N2CCN(Cc3ccc(C(F)(F)F)cc3N3CCC(C(=O)O)CC3)CC2)n1 100 to 1000 nM
CC(=O)Nc1ccn(C(=O)N2CCN(Cc3ccc(C(F)(F)F)cc3C3CCN(CC(=O)O)CC3)CC2)n1 ≤ 100 nM
CC(=O)N1CC2CCC(C1)N2c1cc(C(F)(F)F)ccc1CN1CCN(C(=O)n2ccc(NS(C)(=O)=O)n2)CC1 ≤ 100 nM

Which IC50 is reported for this compound? Cc1ccc(CN2CCN(C(=O)n3ccc(NS(C)(=O)=O)n3)CC2)c(N2CCCC2)c1
≤ 100 nM

Which IC50 is reported for this compound? CS(=O)(=O)Nc1ccn(C(=O)N2CCN(Cc3ccc(Cl)c(N4CCCCC4)c3)CC2)n1
≤ 100 nM

Which IC50 is reported for this compound? CS(=O)(=O)Nc1ccn(C(=O)N2CCN(Cc3ccc(Cl)c(-c4ccc(C(F)(F)F)nc4)c3)CC2)n1
≤ 100 nM

----------
- assayTarget: MAGL (Mus musculus)
- Construct: Proteomes (mouse brain membrane fraction or cell lysates); from tissue; host or cells: mouse brain membrane fraction (or cell lysates)
- Sequence (O35678 1-303): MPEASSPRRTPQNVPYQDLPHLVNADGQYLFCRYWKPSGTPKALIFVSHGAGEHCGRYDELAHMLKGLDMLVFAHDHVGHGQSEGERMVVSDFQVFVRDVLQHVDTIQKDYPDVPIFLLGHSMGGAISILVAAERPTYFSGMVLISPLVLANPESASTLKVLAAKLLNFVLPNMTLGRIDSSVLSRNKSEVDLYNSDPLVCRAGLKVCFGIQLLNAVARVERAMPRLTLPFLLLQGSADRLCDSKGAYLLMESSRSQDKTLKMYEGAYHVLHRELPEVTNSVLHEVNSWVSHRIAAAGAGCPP
- protocolSummary: In vitro competitive activity-based protein profiling (mouse), MAGL gel band
- Assay type: biochemical
- assayContext: read-out: MAGL % inh. 1 μM
- Experimental: In Vitro Competitive Activity-Based Protein Profiling (Mouse). Proteomes (mouse brain membrane fraction or cell lysates) (50 μL, 1.0 mg/mL total protein concentration) were preincubated with varying concentrations of inhibitors at 37° C. […] Following gel imaging, serine hydrolase activity was determined by measuring fluorescent intensity of gel bands corresponding to MAGL, ABHD6, and FAAH, using ImageJ 1.43u software.
Each entry below carries its reported inhibition at 1 µM.

Look over these answered cases.
CS(=O)(=O)Nc1ccn(C(=O)N2CCN(Cc3ccc(Cl)c(N4CCC(C(N)=O)CC4)c3)CC2)n1 0 to 25%
CC(=O)Nc1ccn(C(=O)N2CCN(Cc3ccc(Cl)cc3N3CCCCC3)CC2)n1 ≥ 75%

Which inhibition at 1 µM is reported for this molecule? CC(=O)Nc1ccn(C(=O)N2CCC3(CCCN3Cc3cc(Cl)cc(N4C5CCC4COC5)c3)CC2)n1
≥ 75%

Which inhibition at 1 µM is reported for this molecule? CS(=O)(=O)Nc1ccn(C(=O)N2CCN(Cc3cccc(-c4cccnc4)c3)CC2)n1
≥ 75%
